Molecular target: PD-1/PD-L1 interaction (PD-1-Ig / PD-L1-His) (Homo sapiens (Human))
Assay: PD-1/PD-L1 Homogenous Time-Resolved Fluorescence (HTRF) binding assay
Details: PD-1/PD-L1 HTRF binding assay; numeric value; read-out: Range or IC50
Entries and their pIC50 values follow.
A value of pIC50 is the negative decimal logarithm of a concentration given in moles per litre.

Below, 4 compounds whose answers are already recorded.
CC(=O)NCCNCc1ccc(OCc2cccc(-c3ccccc3)c2C)cc1OCc1ccc(C(=O)O)cc1 ... 6.62
Cc1c(COc2cc(OCc3cncc(S(C)(=O)=O)c3)c(CO)cc2Cl)cccc1-c1ccc2c(c1)OCCO2 ... 7.10
Cc1c(COc2cc(OCc3cccc(C#N)c3)c(CNC(CO)(Cc3ccccc3)C(=O)O)cc2Cl)cccc1-c1ccc2c(c1)OCCO2 (centres unmarked) ... 8.00
Cc1c(COc2cc(OCc3cncc(C(=O)O)c3)c(CN[C@@H](CCCN)C(=O)O)cc2Cl)cccc1-c1ccc2c(c1)OCCO2 ... 8.00

Consider now this further compound.
Task: If you can, please state the reported pIC50 value of `CC(=O)NCCNCc1ccc(OCc2cccc(-c3ccccc3)c2C)cc1OCc1cccc(NC(=O)OC(C)(C)C)c1` .
Result: 4.85

* * *

Biological target: PD-1/PD-L1 interaction (PD-1-Ig / PD-L1-His) (Homo sapiens (Human), UniProt Q9NZQ7)
Sequence (Q9NZQ7 other isoform, or with tags, fused parts or gaps): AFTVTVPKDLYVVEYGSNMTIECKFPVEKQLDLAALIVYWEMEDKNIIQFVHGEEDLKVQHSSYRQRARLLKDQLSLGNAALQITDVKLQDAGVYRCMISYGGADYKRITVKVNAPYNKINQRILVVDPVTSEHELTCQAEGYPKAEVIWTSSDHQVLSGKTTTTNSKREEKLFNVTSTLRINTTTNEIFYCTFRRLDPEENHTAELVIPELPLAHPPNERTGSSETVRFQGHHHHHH
Assay: PD-1/PD-L1 Homogenous Time-Resolved Fluorescence (HTRF) binding assay
Conditions: PD-1/PD-L1 HTRF binding assay; value given as range class; read-out: Range or IC50
property measured: IC50

Past entries and their recorded results:
Cc1c(COc2cc(OCc3cncc(C#N)c3)c(CN3CCCC[C@H]3C(=O)NS(=O)(=O)N(C)C)cc2Cl)cccc1-c1ccc2c(c1)OCCO2 ... 0.01 to 0.1 µM
CC(=O)NCCNCc1ccc(OCc2cccc(-c3ccccc3)c2C)cc1OCc1nccc2ccccc12 ... 0.1 to 20 µM
Cc1c(COc2cc(OCc3cccc(C#N)c3)c(CNC(Cc3nccs3)C(=O)O)cc2Cl)cccc1-c1ccc2c(c1)OCCO2 (stereo not shown) ... 0.01 to 0.1 µM
CC(=O)NCCNCc1ccc(OCc2cccc(-c3ccccc3)c2C)cc1OCc1ccc2ccccc2c1 ... 0.1 to 20 µM
CC(=O)NCCNCc1ccc(OCc2cccc(-c3ccccc3)c2C)cc1OCc1cccc(Cl)c1 ... 0.1 to 20 µM
Cc1c(COc2ccc(CN[C@H](CO)C(=O)O)c(OCc3cccc(C#N)c3)c2)cccc1-c1ccc2c(c1)OCCO2 ... 0.0006 to 0.01 µM

Consider now this further compound.
Task: For the compound `Cc1c(COc2cc(OCc3cccc(C#N)c3)c(CN[C@H](COCc3ccccc3)C(=O)O)cc2Cl)cccc1-c1ccc2c(c1)OCCO2` , what IC50 is on record?
Result: 0.01 to 0.1 µM

* * *

Target: PD-1/PD-L1 interaction (PD-1-Ig / PD-L1-His) (Homo sapiens (Human))
Experiment: PD-1/PD-L1 Homogenous Time-Resolved Fluorescence (HTRF) binding assay
Details: PD-1/PD-L1 HTRF binding assay; value given as range class; read-out: Range or IC50
pIC50: −log10 of the molar value.
Catalogue of pIC50 readings, one per entry.

Use these answered entries as a reference point.
Cc1c(COc2cc(OCc3cccc(C#N)c3)c(CN[C@H](Cc3cn(Cc4ccccc4)cn3)C(=O)O)cc2Cl)cccc1-c1ccc2c(c1)OCCO2 ... 7.00 to 8.00
COc1cc(COc2cc(OCc3cccc(-c4ccc5c(c4)OCCO5)c3C)c(Cl)cc2CN[C@@](C)(CO)C(=O)O)cc(Cl)n1 ... 8.00 to 9.22
Cc1cc(CNC[C@@H](O)CC(=O)O)c(OCc2ccc(F)c(C#N)c2)cc1OCc1cccc(-c2ccc3c(c2)OCCO3)c1C ... 8.00 to 9.22
CCOC(=O)Nc1cncc(COc2cc(OCc3cccc(-c4ccc5c(c4)OCCO5)c3C)c(Cl)cc2C=O)c1 ... 8.00 to 9.22
CC(=O)Nc1cc(COc2cc(OCc3cccc(-c4ccc5c(c4)OCCO5)c3C)c(Cl)cc2CN[C@@](C)(CO)C(=O)O)ccn1 ... 8.00 to 9.22

Now take the following molecule into account.
Task: Please report the recorded pIC50 for `Cc1c(COc2cc(OCc3cccc(C#N)c3)c(CN3CCCC[C@@H]3C(=O)O)cc2Cl)cccc1-c1ccc2c(c1)OCCO2` .
Result: 8.00 to 9.22

* * *

Target: PD-1/PD-L1 interaction (PD-1-Ig / PD-L1-His) (Homo sapiens (Human), UniProt Q9NZQ7)
Test: PD-1/PD-L1 Homogenous Time-Resolved Fluorescence (HTRF) binding assay
Details: PD-1/PD-L1 HTRF binding assay; value given as range class; read-out: Range or IC50
property measured: IC50

# annotated cases, reported IC50 shown
Cc1cc(CNCCO)c(OCc2cncc(C#N)c2)cc1OCc1cccc(-c2ccc3c(c2)OCCO3)c1Cl ... 0.6 to 10 nM
Cc1c(COc2ccc(CN[C@H](CO)C(=O)O)c(OCc3cccc(C#N)c3)c2Cl)cccc1-c1ccc2c(c1)OCCO2 ... 100 to 20000 nM
Cc1cc(CN[C@@](C)(CO)C(=O)O)c(OCc2cccc(C#N)c2)cc1OCc1cccc(-c2ccc3c(c2)OCCO3)c1C ... 0.6 to 10 nM
CCCOc1cc(OCc2cccc(-c3ccccc3)c2C)ccc1CNCCNC(C)=O ... 100 to 20000 nM
CC(=O)NCCNCc1ccc(OCc2cccc(-c3ccccc3)c2C)cc1OCc1ccccc1F ... 100 to 20000 nM
Cc1c(COc2cc(OCc3cccc(C#N)c3)c(CN[C@@H](CO)C(=O)O)cc2Br)cccc1-c1ccc2c(c1)OCCO2 ... 0.6 to 10 nM
COc1cc(OCc2cccc(-c3ccccc3)c2C)cc(OCc2cccc(C#N)c2)c1CNC(C)(CO)C(=O)O (centres unmarked) ... 0.6 to 10 nM
CC(=O)NCCNCc1ccc(OCc2cccc(-c3ccccc3)c2C)cc1OCc1cccc(Cl)c1F ... 100 to 20000 nM
CC(=O)NCCNCc1ccc(OCc2cccc(-c3ccccc3)c2C)cc1OCc1ccc(Cl)cc1 ... 100 to 20000 nM
Cc1c(COc2cc(OCc3cccc(C#N)c3)c(CN3CCSC[C@@H]3C(=O)O)cc2Cl)cccc1-c1ccc2c(c1)OCCO2 ... 10 to 100 nM

Task: Query: IC50; subject: `Cc1c(COc2cc(OCc3cncc(C#N)c3)c(CN[C@@H](Cc3ccncc3)C(=O)O)cc2Cl)cccc1-c1ccc2c(c1)OCCO2`
Result: 10 to 100 nM

Task: Do the same for `COc1ccc(C(=O)O)cc1COc1cc(OCc2cccc(-c3ccc4c(c3)OCCO4)c2C)c(Cl)cc1CN1CCCC[C@H]1C(=O)O` please
Result: 100 to 20000 nM

Task: Another molecule to look at: `Cc1c(COc2ccc(CN[C@](C)(CO)C(=O)O)c(OCc3ccc(F)c(C#N)c3)c2)cccc1-c1ccccc1`
Result: 0.6 to 10 nM

Task: Also `Cc1c(COc2cc(OCc3cncc(C#N)c3)c(CN[C@](C)(CO)C(=O)O)cc2Cl)cccc1-c1ccc2c(c1)OCCO2` , if possible.
Result: 0.6 to 10 nM

* * *

Biological target: PD-1/PD-L1 interaction (PD-1-Ig / PD-L1-His) (Homo sapiens (Human), UniProt Q9NZQ7)
Assay: PD-1/PD-L1 Homogenous Time-Resolved Fluorescence (HTRF) binding assay
Settings: PD-1/PD-L1 HTRF binding assay; value given as range class; read-out: Range or IC50
Listing: IC50 of selected molecules

These recorded examples may help you get a feel for the data.
Cc1c(COc2cc(OCc3cccc(C#N)c3)c(CNCc3nnn[nH]3)cc2Cl)cccc1-c1ccc2c(c1)OCCO2 [Example 1229] ... 0.6 to 10 nM
Cc1c(COc2ccc(CN[C@@](C)(CO)C(=O)O)c(OCc3cccc(C#N)c3)c2)cccc1-c1ccc2c(c1)OCCO2 [Example 1128] ... 0.6 to 10 nM
COc1ccc(F)c(COc2cc(OCc3cccc(-c4ccccc4)c3C)ccc2CNCCNC(C)=O)c1F [Example 1092] ... 100 to 20000 nM
Cc1c(COc2cc(OCc3cccc(C#N)c3)c(CNC[C@@H](O)CC(=O)O)cc2Br)cccc1-c1ccc2c(c1)OCCO2 [Example 1300] ... 0.6 to 10 nM

Task: # IC50 lookup, item Cc1c(COc2cc(OCc3cncc(C#N)c3)c(CN3CCCC[C@H]3C(=O)O)cc2Br)cccc1-c1ccccc1 [Example 1298]
Result: 0.6 to 10 nM

Task: Can you handle Cc1cc(OCc2cccc(-c3ccc4c(c3)OCCO4)c2C)cc(OCc2cncc(C#N)c2)c1CN[C@@](C)(CO)C(=O)O [Example 1010] next?
Result: 0.6 to 10 nM

Task: Try this molecule too: CC(=O)NCCNCc1cc(Cl)c(OCc2cccc(-c3ccc4c(c3)OCCO4)c2C)cc1OCc1cncc(C#N)c1 [Example 1251]
Result: 0.6 to 10 nM
